- Test system: PC-3 prostate
- protocolDetails: NCI-60 one-dose screen, 48 h (100 = growth as untreated, 0 = no growth, -100 = all killed)
- reportedConditions: 10 µM unless noted
- Protocol: Growth inhibition of the PC-3 human tumor cell line is measured as a screen for anti-cancer activity. Cells are grown in 96 well plates and exposed to the test compound for 48 hours. Compounds are tested at a single concentration, which is 10^-5 M for most compounds. The reported endpoint is percent growth (GI% or GIPRCNT), where numbers from 0 - 100% represent growth inhibition, and numbers from -100% - 0 represent cell death. For example, a value of 40 represents 60% growth inhibition. […]
This is part of a sample that, as a whole, favours compounds with a hit. Of some 83,000 tested, about 20% had one in any assay. The source made the active and inactive calls. The calls were made as follows: active = growth percent below 10; inactive = the rest.
measurementType: growth

Known growth results, listed for orientation:
CCC1CN2C(=N1)c1ccccc1-c1cc(Cl)ccc12 (stereo unspecified) : 21.6% (inactive)
C#CC(=O)/C=C/CCCCCCC#CC(=O)CCC(=O)C#CCCCCCC/C=C/C(=O)C#C : 12.2% (inactive)
CCCN1C(=O)CSC1=Nc1ccc2cc3ccc(N=C4SCC(=O)N4CCC)cc3nc2c1 : 16.7% (inactive)
CC1(C)N=C(N)N=C(N)N1c1ccc(F)c(C(F)(F)F)c1 : 34.3% (inactive)
CCN(CC)CCNc1ccc([N+](=O)[O-])c2sc3cc(Cl)ccc3c(=O)c12 : 48.5% (inactive)
CCc1cccc(C)c1NC(=O)c1sc2nc3c(cc2c1N)CCCCC3 : 35.5% (inactive)
CCCCOc1c(N)cccc1C(=O)OCCN(CC)CC : 86.8% (inactive)
c1ccc2nc(Cn3cc[n+](Cc4ccc5ccccc5n4)c3)ccc2c1 : 42.6% (inactive)
COCCNC(C(=O)c1ccccc1)c1ccccc1 (stereo unspecified) : 92.7% (inactive)
COc1ccc(Cl)cc1NC(=O)c1cc2c([nH]1)-c1nc(N)sc1CCC2 : 97.8% (inactive)

## Input If you can, please state the reported growth value of `COc1cc(Br)c(-c2nc(-c3ccccc3)c(-c3ccccc3)n2Cc2ccccc2)cc1OC` .
## Output 29.7% (inactive)
